system: 454973-116-R2-J3-PDC spheroids, viability, % test/control; assay: Anticancer human tumor 454973-116-R2-J3-PDC patient-derived pancreatic carcinoma cell line growth inhibition [GQUAD]; settings: curve of first compound; second compound 0.316 µM; spheroids with HUVEC and MSC;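 further: spheroids exposed to compounds for seven days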
measurement.type: IC50

[[record]]
compound = "CC1COCCN1c1cc(C2(O)CC3CCC(C2)O3)c2cnn(-c3ccn[nH]3)c2n1 (stereo not given) + Cc1cnc(CNC(=O)c2c(=O)c3ccc(N4CCCN(C)CC4)nc3n3c2sc2ccccc23)cn1"
observed_value = "< 0.0316 µM"

[[record]]
compound = "COc1ncnc(C2CC2)c1-c1ncc2cnn(Cc3ccc(-c4nc(C(F)(F)F)cn4C(C)C)cc3)c2n1 + CN(C)c1ccc(Nc2c3ccc(NC(=O)CCN4CCCC4)cc3nc3cc(NC(=O)CCN4CCCC4)ccc23)cc1"
observed_value = "> 10 µM"

[[record]]
compound = "Cc1cccc(N(C)C(=O)C2C(O)CCN2c2nc(C)cc(C(F)(F)F)c2C#N)c1 (stereo not given) + Cc1[nH]c2ccc(F)cc2c1-c1nc2c3cccnc3c3ncccc3c2[nH]1"
observed_value = "> 10 µM"

[[record]]
compound = "Cn1ncnc1[C@H]1c2n[nH]c(=O)c3cc(F)cc(c23)N[C@@H]1c1ccc(F)cc1 + CN(C)c1ccc(Nc2c3ccc(NC(=O)CCN4CCCC4)cc3nc3cc(NC(=O)CCN4CCCC4)ccc23)cc1"
observed_value = "> 0.316 µM"

[[record]]
compound = "Cn1ncnc1[C@H]1c2n[nH]c(=O)c3cc(F)cc(c23)N[C@@H]1c1ccc(F)cc1 + Cc1[nH]c2ccc(F)cc2c1-c1nc2c3cccnc3c3ncccc3c2[nH]1"
observed_value = "> 0.316 µM"

[[record]]
compound = "CC(=O)O[C@H]1C(=O)[C@@]2(C)[C@H]([C@H](OC(=O)c3ccccc3)[C@]3(O)C[C@H](OC(=O)[C@H](O)[C@@H](NC(=O)c4ccccc4)c4ccccc4)C(C)=C1C3(C)C)[C@]1(OC(C)=O)CO[C@@H]1C[C@@H]2O + Cc1[nH]c2ccc(F)cc2c1-c1nc2c3cccnc3c3ncccc3c2[nH]1"
observed_value = "< 0.0316 µM"

[[record]]
compound = "CC(C)n1c(=O)n(C)c2cnc3cc(F)c(-c4ccc(OCCCN5CCCCC5)nc4)cc3c21 + Cc1[nH]c2ccc(F)cc2c1-c1nc2c3cccnc3c3ncccc3c2[nH]1"
observed_value = "> 10 µM"

[[record]]
compound = "Cc1cccc(N(C)C(=O)C2C(O)CCN2c2nc(C)cc(C(F)(F)F)c2C#N)c1 (stereo not given) + CN(C)c1ccc(Nc2c3ccc(NC(=O)CCN4CCCC4)cc3nc3cc(NC(=O)CCN4CCCC4)ccc23)cc1"
observed_value = "> 10 µM"

[[record]]
compound = "CCc1c2c(nc3ccc(O)cc13)-c1cc3c(c(=O)n1C2)COC(=O)[C@]3(O)CC + Cc1cnc(CNC(=O)c2c(=O)c3ccc(N4CCCN(C)CC4)nc3n3c2sc2ccccc23)cn1"
observed_value = "< 0.000999 µM"

[[record]]
compound = "Cc1cccc(N(C)C(=O)C2C(O)CCN2c2nc(C)cc(C(F)(F)F)c2C#N)c1 (stereo not given) + Cc1cnc(CNC(=O)c2c(=O)c3ccc(N4CCCN(C)CC4)nc3n3c2sc2ccccc23)cn1"
observed_value = "> 10 µM"


Where do the numbers come from? From PubChem BioAssay AID2060508.
